- Assay Name: self-splicing fitness, log relative to wild type (ln ratio); higher = more splicing; Tetrahymena group I intron in knt gene, E. coli kanamycin selection, DiMSum; sequences stand for … in CUCUCU…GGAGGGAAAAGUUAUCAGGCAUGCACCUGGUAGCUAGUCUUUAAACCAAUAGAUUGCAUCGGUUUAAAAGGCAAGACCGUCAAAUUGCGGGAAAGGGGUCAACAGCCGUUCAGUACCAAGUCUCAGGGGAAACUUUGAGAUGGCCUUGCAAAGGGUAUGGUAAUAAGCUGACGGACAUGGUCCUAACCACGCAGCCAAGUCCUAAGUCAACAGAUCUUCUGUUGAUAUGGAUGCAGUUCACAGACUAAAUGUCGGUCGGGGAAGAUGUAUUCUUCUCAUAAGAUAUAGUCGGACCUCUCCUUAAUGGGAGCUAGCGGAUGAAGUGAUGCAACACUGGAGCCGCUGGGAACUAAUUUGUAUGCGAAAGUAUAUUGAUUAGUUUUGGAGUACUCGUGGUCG;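 note: selection with 25 µg/mL kanamycin versus none on LB agar overnight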
- Condition Context: 37 °C
Entries and their self-splicing fitness (ln)
Answer field: number only, no words.

Reference set, count: 5
[[record]]
sequence_input = "AUGUAGCAAUAUUACGCUGA"
recorded_metric = "self-splicing fitness (ln)"
reading = -1.29

[[record]]
sequence_input = "UUCCAGCAAUAUUACGGGUG"
recorded_metric = "self-splicing fitness (ln)"
reading = -0.15

[[record]]
sequence_input = "GUUUAGCAAUAUUACGGAAU"
recorded_metric = "self-splicing fitness (ln)"
reading = -1.26

[[record]]
sequence_input = "AUUGAGCAAUAUUACGACAA"
recorded_metric = "self-splicing fitness (ln)"
reading = -1.31

[[record]]
sequence_input = "CUUGAGCAAUAUUACGGCUC"
recorded_metric = "self-splicing fitness (ln)"
reading = -1.67


Turning now to a further record.
Task item: // self-splicing fitness (ln) lookup, key: UCCAAGCAAUAUUACGUGUU
Reply: -1.85

----------
- Assay Name: self-splicing fitness, log relative to wild type (ln ratio); higher = more splicing; Tetrahymena group I intron in knt gene, E. coli kanamycin selection, DiMSum; sequences stand for … in CUCUCU…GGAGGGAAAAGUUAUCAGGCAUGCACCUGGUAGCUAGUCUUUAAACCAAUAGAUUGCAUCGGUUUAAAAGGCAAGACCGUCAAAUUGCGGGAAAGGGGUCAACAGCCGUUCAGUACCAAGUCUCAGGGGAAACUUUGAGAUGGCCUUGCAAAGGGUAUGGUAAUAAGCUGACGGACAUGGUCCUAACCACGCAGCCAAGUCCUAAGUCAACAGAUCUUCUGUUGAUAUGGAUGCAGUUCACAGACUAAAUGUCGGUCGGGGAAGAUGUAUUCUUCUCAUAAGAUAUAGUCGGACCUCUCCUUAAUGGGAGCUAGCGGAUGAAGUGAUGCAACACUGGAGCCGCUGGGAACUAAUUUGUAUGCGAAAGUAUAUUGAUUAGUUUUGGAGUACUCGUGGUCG
- Condition Context: 37 °C
# thresholds on self-splicing fitness (ln) define classes: bottom range (below -2), center range (-2 to below -1), top range (-1 or more)

For orientation, consider the following solved cases.
[[record]]
sequence_input = "GGCUAGCAAUAUUACGUCGA"
discrete_label = "top range"

[[record]]
sequence_input = "AUGAAGCAAUAUUACGGGGU"
discrete_label = "center range"

[[record]]
sequence_input = "AGAUAGCAAUAUUACGAUCC"
discrete_label = "top range"

[[record]]
sequence_input = "AUCGAGCAAUAUUACGCCUG"
discrete_label = "center range"


Task item: GET /class?item= UGGGAGCAAUAUUACGGGAU
Reply: bottom range

Task item: GET /class?item= CUGUAGCAAUAUUACGCAGG
Reply: bottom range

Task item: GET /class?item= AGCCAGCAAUAUUACGGCUG
Reply: center range

Task item: GET /class?item= AGCGAGCAAUAUUACGAACC
Reply: top range

Task item: GET /class?item= CGCCAGCAAUAUUACGACGU
Reply: center range

Task item: GET /class?item= GGGUAGCAAUAUUACGUUUG
Reply: center range

Task item: GET /class?item= CGAUAGCAAUAUUACGUUCG
Reply: center range

Task item: GET /class?item= ACAGAGCAAUAUUACGGACG
Reply: top range

Task item: GET /class?item= GUUGAGCAAUAUUACGUAGC
Reply: bottom range

Task item: GET /class?item= GGUUAGCAAUAUUACGAGUC
Reply: center range
